TARGET_ENTITY: Cytochrome P450 2C9 (Homo sapiens) (UniProt P11712)
Sequence (P11712 whole entry, looked up): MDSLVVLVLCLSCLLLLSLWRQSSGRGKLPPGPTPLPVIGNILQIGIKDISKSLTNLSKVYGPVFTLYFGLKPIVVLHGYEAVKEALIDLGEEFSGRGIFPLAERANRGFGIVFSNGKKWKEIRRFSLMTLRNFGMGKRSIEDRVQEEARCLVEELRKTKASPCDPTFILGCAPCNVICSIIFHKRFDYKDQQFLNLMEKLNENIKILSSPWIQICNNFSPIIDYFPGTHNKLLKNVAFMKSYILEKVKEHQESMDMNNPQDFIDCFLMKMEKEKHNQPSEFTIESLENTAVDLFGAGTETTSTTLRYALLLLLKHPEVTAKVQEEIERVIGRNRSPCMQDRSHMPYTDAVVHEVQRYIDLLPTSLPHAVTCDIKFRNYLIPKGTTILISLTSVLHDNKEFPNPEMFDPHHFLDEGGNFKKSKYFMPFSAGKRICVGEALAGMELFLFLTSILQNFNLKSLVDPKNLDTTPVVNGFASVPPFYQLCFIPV
TEST_DESCRIPTION: Cytochrome panel assay with activity outcomes
PROTOCOL_CONDITIONS: recombinant CYP, pro-luciferin dealkylation, luminescence, p450-cyp2c9; series mostly up to 57.1 µM
About 4,000 (25%) of roughly 16,000 compounds were called active. Inconclusive results (about 26%) are left out. Calls follow the shape of the dose curve; as a rule, active = well fitted curve in the direction sought with a large enough effect; inconclusive = small, poorly fitted or top-dose-only effect, or effect the other way; inactive = no such curve, though single readings can be large or run the other way. A selection follows.
Possible outcomes: True (active), False (inactive)

> print(dat)
                            structure.string  label.value
 1                    c1csc(CNCCCN2CCOCC2)c1        False
 2  COc1ccc(-n2c(=O)c(-c3ccc(Cl)cc3)nc3cnc(N4CCNCC4)nc32)cc1        False
 3  COc1ccc(-c2nc3cnc(N4CCNCC4)nc3n(Cc3cccc(OC)c3)c2=O)cc1         True
 4      CC1=CC(=C2C(=O)c3ccccc3C2=O)C=C(C)O1         True
 5  Cc1cccc(NC(=O)CSc2nc3ccccc3c3nc(CCc4c(C)n[nH]c4C)nn23)c1         True
 6  COC(=O)[C@@]1(Cc2ccc(F)cc2)[C@H]2c3cc(C(=O)N(C)C)n(Cc4ccc(C)c(F)c4F)c3C[C@H]2CN1C(=O)c1ccccc1         True
 7  CCOc1ccc(NC(=O)c2ccc(Br)o2)c([N+](=O)[O-])c1        False
 8          O=C1SC(c2ccccc2)=C/C1=C\N1CCCCC1         True
 9      CC1(C)Cc2ccccc2C(NNC(=O)c2ccncc2)=N1        False
10                 CCCOc1ccc(OCCNC2CCCC2)cc1        False
11  COc1ccc(NC(=O)CN(C)S(=O)(=O)c2ccc(Cl)cc2)c([N+](=O)[O-])c1        False
12  O=C(C/C=N/OCc1ccc(F)cc1Cl)c1cnc(-c2ccccc2)s1         True
13  COc1cccc(Cn2c(=O)c(-c3ccccc3)nc3cnc(N4CCN(C)CC4)nc32)c1        False
14  CC1=CC(=C2C(=O)c3ccccc3C2=O)C=C(C)N1Cc1ccco1         True

###

TARGET_ENTITY: Cytochrome P450 2C9 (Homo sapiens) (UniProt P11712)
TEST_DESCRIPTION: Cytochrome panel assay with activity outcomes
PROTOCOL_CONDITIONS: recombinant CYP, pro-luciferin dealkylation, luminescence, p450-cyp2c9; series mostly up to 57.1 µM
Method: The P450 gene superfamily is involved in the metabolism and clearance of xenobiotics. This assay used various human CYP P450 isozymes to measure the dealkylation of various pro-luciferin substrates to luciferin. The luciferin is then measured by luminescence after the addition of a luciferase detection reagent. […] Inhibitors and some substrates limit the production of luciferin, and decrease measured luminescence. […] 8, Detection, 1 sec, ViewLux luminescent read […]
The campaign covered roughly 16,000 compounds. About 4,000 (25%) were called active. Roughly 26% stayed inconclusive and do not appear here. The call rests on the fitted dose curve; in most records, active means well fitted curve in the direction sought with a large enough effect; inconclusive means small, poorly fitted or top-dose-only effect, or effect the other way; inactive means no such curve, though single readings can be large or run the other way. The list is a sample of the results.
Outcomes: active, inactive

> print(dat)
                                    compound  label.value
 1  CC[N+](CC)(CC(=O)Nc1c(C)cccc1C)Cc1ccccc1     inactive
 2   Cc1ccc(-c2n[nH]c(=S)n2/N=C/c2cccn2C)cc1       active
 3  COc1ccc2cc(C#N)c(SCC(=O)NNC(=O)Cc3ccccc3)nc2c1     inactive
 4  O=C(Nc1nnc(C2CC2)s1)C1Cc2ccccc2CN1S(=O)(=O)c1ccccc1F (stereo not drawn)       active
 5  COCCCNC(=O)C1CC(=O)N(Cc2ccc(OC)cc2)C1 (stereo not drawn)     inactive
 6  CCc1nnc(NC(=O)C2Cc3ccccc3CN2S(=O)(=O)c2ccc(C)cc2)s1 (stereo not drawn)       active
 7  COc1ccc(NC(=O)N2CCCC3(CCN(C(=O)c4cc(C(F)(F)F)cc(C(F)(F)F)c4)CC3)C2)cc1     inactive
 8           N#Cc1c(-c2ccccc2)nc2n(c1=O)CCS2     inactive
 9  O=C(Nc1nccs1)C1Cc2ccccc2CN1S(=O)(=O)c1ccc(F)cc1 (stereo not drawn)       active
10  COc1cc2ccccc2cc1C(=O)Nc1ccc(S(=O)(=O)Nc2cc(C)on2)cc1       active
11          CCCc1nnc(SCC(=O)N2CCCCC2)n1CCCOC     inactive
12  Cc1ccc(C)c(CN2C(=O)C3CCCN3c3ccc(C#N)cc32)c1 (stereo not drawn)       active
13  CON/C=C(\C=Nc1ccccc1)c1ncc(C(F)(F)F)cc1Cl       active
14  CCOC(=O)N1CCC(NC(=O)C2CCN(S(=O)(=O)N3CCCC3)CC2)CC1     inactive
15    COc1cccc(/C=N/NC(=O)C(=O)NCc2cccnc2)c1       active
16  CN1CCN2c3ncccc3Cc3ccccc3C2C1 (stereo not drawn)       active
17  COc1ccc(C(=O)N2CCC[C@@]3(CCN(Cc4cc(C(F)(F)F)cc(C(F)(F)F)c4)C3)C2)cc1     inactive
18  COc1ccc(-c2cc(C(=O)Nc3cc(OC)c(OC)c(OC)c3)no2)cc1OC     inactive

###

TARGET_ENTITY: Cytochrome P450 2C9 (Homo sapiens) (UniProt P11712)
TEST_DESCRIPTION: Cytochrome panel assay with activity outcomes
PROTOCOL_CONDITIONS: recombinant CYP, pro-luciferin dealkylation, luminescence, p450-cyp2c9; series mostly up to 57.1 µM
In all, about 16,000 compounds went through this assay and about 4,000 (25%) were called active. Inconclusive results (about 26%) are left out. The list is a sample of the results.

COMPOUND	AC50
CC(C)CC(=O)N[C@H](C(=O)N[C@H](C(=O)N[C@@H](CC(C)C)[C@H](O)CC(=O)N[C@@H](C)C(=O)N[C@@H](CC(C)C)[C@H](O)CC(=O)O)C(C)C)C(C)C	inactive
CN1CCN(c2ncc3nc(-c4cc(F)cc(F)c4)c(=O)n(CCc4ccccc4)c3n2)CC1	inactive
COc1ccc(-c2nc3cnc(N4CCOCC4)nc3n(CCc3ccccc3)c2=O)cc1	inactive
COc1ccc(CCN(C(=O)C(F)(F)F)C(C(=O)NC2CCCC2)c2cccs2)cc1 (centres undefined)	3.16 µM (active)
